ASSAY_TARGET: 3-oxo-5-alpha-steroid 4-dehydrogenase 1 (Homo sapiens, UniProt P18405)
Sequence (P18405 whole entry): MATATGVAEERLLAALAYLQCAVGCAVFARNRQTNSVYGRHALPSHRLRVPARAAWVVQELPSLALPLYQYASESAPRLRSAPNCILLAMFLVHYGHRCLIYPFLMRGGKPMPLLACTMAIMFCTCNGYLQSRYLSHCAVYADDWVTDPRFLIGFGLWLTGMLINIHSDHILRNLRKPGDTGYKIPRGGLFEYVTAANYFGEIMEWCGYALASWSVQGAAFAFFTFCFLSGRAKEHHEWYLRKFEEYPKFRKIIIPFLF
pIC50: −log10 of the molar value.
Lab note: anything with pIC50 at or over 8 counts as fulfilled; the rest go in not fulfilled.

COMPOUND	LABEL_VALUE
CC(C)CCCC(C)C1CCC2C3CCC4N(C)C(=O)CC[C@]4(C)C3CC[C@]12C (stereo not given in full)	fulfilled
CC(C)(C)NC(=O)[C@H]1CC[C@H]2[C@@H]3CC[C@H]4NC(=O)C=C[C@]4(C)[C@H]3CC[C@]12C [FINASTERIDE]	not fulfilled
CC(C)CCCC(C)C1CCC2C3C(CC[C@]12C)[C@@]1(C)CCC(=O)NC1=C[C@@H]3c1ccccc1 (stereo not given in full)	not fulfilled
CC(C)(C)NC(=O)[C@H]1CC[C@H]2[C@@H]3CC=C4C=C(C(=O)O)CC[C@]4(C)[C@H]3CC[C@]12C [EPRISTERIDE]	not fulfilled
CC(C)CCCC(C)C1CCC2C3C(CC[C@]12C)[C@@]1(C)CCC(=O)N(C)C1=C[C@@H]3C (stereo not given in full)	fulfilled
CC(C)CCCC(C)C1CCC2C3C(CC[C@]12C)[C@@]1(C)CCC(=O)N(C)C1=C[C@@H]3c1ccccc1 (stereo not given in full)	not fulfilled
CC[C@H]1CC2NC(=O)CC[C@]2(C)C2CC[C@]3(C)C(C(C)CCCC(C)C)CCC3C21 (stereo not given in full)	fulfilled
CC(C)CCCC(C)C1CCC2C3C(CC[C@]12C)[C@@]1(C)CCC(=O)NC1C[C@@H]3c1ccccc1 (stereo not given in full)	not fulfilled
